I'd be grateful if you could share measured pEC50 for these entries.
target: PPARδ (Homo sapiens); construct: fused to amino acids 147-441 of PPARδ downstream of CMV promoter; expressed in transfected cells; host or cells: HEK293 cells, transiently transfected with pFACMV-PPARδ using Fugene; experiment: Transactivation assay (PPARδ GAL4 assay) in transiently transfected HEK293 cells; assay type: cell-based; conditions: luciferase reporter, Table 1
pEC50: −log10 of the molar value.

[in] Would you kindly share the measured pEC50 for COc1ccc(C(=O)c2cc(C(C)C)sc2NC(=O)CSCC(=O)O)cc1 ?
[out] 4.52 to 6.00

[in] Data request, read-out pEC50, for CCc1cc(C(=O)c2ccc(-c3ccccc3)cc2)c(NC(=O)CC(C)(C)CC(=O)O)s1
[out] 6.00 to 7.00

[in] Record request: pEC50 value, item CCc1cc(C(=O)c2cccc(-c3ccc(F)cc3)c2)c(NC(=O)CNC(C)(C)C(=O)O)s1
[out] 6.00 to 7.00

[in] Requested field: pEC50. Item: CCc1cc(C(=O)c2ccc(Cl)c(Cl)c2)c(NC(=O)CSC(C)(C)C(=O)O)s1
[out] > 7.00

----------
Exercise: state measured pEC50 for each of the compounds provided.
Target: PPARδ (Homo sapiens, UniProt Q03181)
Construct: fused to amino acids 147-441 of PPARδ downstream of CMV promoter; expressed in transfected cells; host or cells: HEK293 cells, transiently transfected with pFACMV-PPARδ using Fugene
Sequence (Q03181 147-441): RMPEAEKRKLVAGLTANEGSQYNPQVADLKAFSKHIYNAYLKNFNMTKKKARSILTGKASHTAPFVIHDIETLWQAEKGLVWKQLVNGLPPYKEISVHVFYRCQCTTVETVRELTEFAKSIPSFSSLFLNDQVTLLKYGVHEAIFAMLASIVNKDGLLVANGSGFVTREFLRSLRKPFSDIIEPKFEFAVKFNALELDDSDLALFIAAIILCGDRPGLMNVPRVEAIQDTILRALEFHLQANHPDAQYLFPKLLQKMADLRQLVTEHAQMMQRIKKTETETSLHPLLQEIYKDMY
Experiment: Transactivation assay (PPARδ GAL4 assay) in transiently transfected HEK293 cells
Type: cell-based
Details: luciferase reporter, Table 1
pEC50: −log10 of the molar value.

[in] Returns the measured pEC50 for the input compound. Input: CCc1cc(C(=O)c2ccc(OC)c(OC)c2)c(NC(=O)CSCC(=O)O)s1
[out] 4.52 to 6.00

[in] Consider the compound shown here: CCc1cc(C(=O)c2ccc(OC(F)(F)F)cc2)c(NC(=O)CC(C)(C)CC(=O)O)s1 What is its recorded pEC50?
[out] 6.00 to 7.00

[in] Item under review: CCc1cc(C(=O)c2ccc(C(C)(C)C)cc2)c(NC(=O)CSCC(=O)O)s1 . Reported pEC50?
[out] 4.52 to 6.00

[in] Given the compound CCc1cc(C(=O)c2ccc(OC)cc2)c(NC(=O)CCCC(=O)O)s1 , what is its reported pEC50?
[out] 4.52 to 6.00

[in] Recorded pEC50 of CCc1cc(C(=O)c2ccc(OC(F)(F)F)cc2)c(NC(=O)CSc2ccc(OCC(=O)O)cc2)s1 , please.
[out] 6.00 to 7.00

[in] Form field: reported pEC50 of CCc1cc(C(=O)c2ccc(Cl)cc2)c(NC(=O)CC2(CC(=O)O)CCCC2)s1
[out] 4.52 to 6.00

[in] Look up pEC50 for this compound: CC(C)(NCC(=O)Nc1sc(Cl)cc1C(=O)c1ccc(OC(F)(F)F)cc1)C(=O)O
[out] 6.00 to 7.00

[in] What value of measured pEC50 is listed for CCc1cc(C(=O)c2ccc(OC)cc2)c(NC(=O)CSc2ccc(OC(C)(C)C(=O)O)cc2)s1 ?
[out] 6.00 to 7.00
